tested on: human δ receptor (hDOPr) (Homo sapiens, UniProt P41143)
Sequence (P41143 whole entry): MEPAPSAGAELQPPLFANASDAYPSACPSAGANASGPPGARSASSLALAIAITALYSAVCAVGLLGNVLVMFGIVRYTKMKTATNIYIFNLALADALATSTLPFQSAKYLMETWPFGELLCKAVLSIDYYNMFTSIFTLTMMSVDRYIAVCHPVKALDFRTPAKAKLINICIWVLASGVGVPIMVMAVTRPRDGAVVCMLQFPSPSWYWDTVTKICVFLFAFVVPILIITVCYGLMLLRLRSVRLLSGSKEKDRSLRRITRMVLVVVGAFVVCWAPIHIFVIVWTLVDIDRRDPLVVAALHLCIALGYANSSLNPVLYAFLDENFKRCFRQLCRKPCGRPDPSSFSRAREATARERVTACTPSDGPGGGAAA
quantity kind: pKd
Give bare numbers, as −log10 of the molar value.

Problem: Query: pKd; subject: CN1CC[C@]2(c3cccc(O)c3)Cc3nc4ccccc4cc3C[C@H]2C1
Solution: 8.40
